From: the supplement of paper PMC12042874

Test: amyloid nucleation score (Sup35N fusion, yeast selection) (log enrichment); library NNK3; higher = more nucleation; inactive = no reads after selection;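 note: zero at mode of non-aggregating sequences after 7 days selection at 30°C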
MEASURED_METRIC: amyloid nucleation score

Recorded results for 5 substances are shown here.
DRGSMSHILASVSTFNVYIS : 1.2
AFPCFIVY : inactive
VVYTGTNGRLQDRA : inactive
PFTACWVSVADNPYPSNKTG : inactive
MSKWYYRWASYNCWFFDRPV : inactive

Exam item: Fill in: amyloid nucleation score of LIIGHVFGFHGYVDWDDGTC is ___
Marked response: inactive

Exam item: Fill in: amyloid nucleation score of CIFFRVGSFLNYFYASAWHS is ___
Marked response: inactive

Exam item: Fill in: amyloid nucleation score of PSSLVIINNYSYC is ___
Marked response: 3.09

Exam item: Fill in: amyloid nucleation score of MHNRLVNDPACPVSTSSL is ___
Marked response: inactive

Exam item: Fill in: amyloid nucleation score of HGTAGLPK is ___
Marked response: 0.807

Exam item: Fill in: amyloid nucleation score of PCKDLQTYWFENWCQRFGR is ___
Marked response: inactive

Exam item: Fill in: amyloid nucleation score of ILYWVYCSYSSNHDLYLFII is ___
Marked response: inactive

Exam item: Fill in: amyloid nucleation score of FNMCLASQAVIADLWVVFSW is ___
Marked response: -0.054

Exam item: Fill in: amyloid nucleation score of IDDQLCQ is ___
Marked response: inactive

Exam item: Fill in: amyloid nucleation score of NFLFMCSPYYLWIFDPGCYL is ___
Marked response: 2.8

Exam item: Fill in: amyloid nucleation score of VIRVLQPFDCGCILYSCLIS is ___
Marked response: inactive

Exam item: Fill in: amyloid nucleation score of IKAVSYTVSVSPPCFSSKSH is ___
Marked response: 0.402

Exam item: Fill in: amyloid nucleation score of YRDFDEDCVIL is ___
Marked response: inactive

Exam item: Fill in: amyloid nucleation score of FLAWYMTFMV is ___
Marked response: 0.036

Exam item: Fill in: amyloid nucleation score of MWLRFKDFVVRWN is ___
Marked response: inactive

Exam item: Fill in: amyloid nucleation score of YNANFFWYLADGIFDA is ___
Marked response: inactive

Exam item: Fill in: amyloid nucleation score of VAPLAILDRKSKSLVGNNMA is ___
Marked response: inactive
